B1: HDV Ribozyme (parent)
chain: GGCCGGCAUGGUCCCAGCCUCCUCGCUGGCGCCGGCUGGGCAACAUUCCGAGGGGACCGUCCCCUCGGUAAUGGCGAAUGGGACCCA

# Variants of: B1
# methodNotes: self-cleavage, relative activity (ratio to wild type); higher = more cleavage; co-transcriptional
Category scheme (self-cleavage): bin A (below 0.2), bin B (0.2 to below 0.7), bin C (0.7 or more)

> print(dat)
   variantkey  qualitativelabel
1   C18G U79C             bin A
2   U65A G73U             bin B
3   G29C G81U             bin A
4   G35C G74C             bin A
5   G34U G76U             bin A

Class label required: C48A G80A bin B

GET /class?item= G35C C61A bin B

Tag the class for G17C C86A bin B

# bin label for G2U G29U bin A

# bin lookup: classify G39U A42U by its self-cleavage bin B

Just checking, what class would you give G54C C62G here? bin C

Hey, which category is U60G C61U in, do you know? bin C
